- Measured On: furin, P09958
- Sequence (P09958 whole entry): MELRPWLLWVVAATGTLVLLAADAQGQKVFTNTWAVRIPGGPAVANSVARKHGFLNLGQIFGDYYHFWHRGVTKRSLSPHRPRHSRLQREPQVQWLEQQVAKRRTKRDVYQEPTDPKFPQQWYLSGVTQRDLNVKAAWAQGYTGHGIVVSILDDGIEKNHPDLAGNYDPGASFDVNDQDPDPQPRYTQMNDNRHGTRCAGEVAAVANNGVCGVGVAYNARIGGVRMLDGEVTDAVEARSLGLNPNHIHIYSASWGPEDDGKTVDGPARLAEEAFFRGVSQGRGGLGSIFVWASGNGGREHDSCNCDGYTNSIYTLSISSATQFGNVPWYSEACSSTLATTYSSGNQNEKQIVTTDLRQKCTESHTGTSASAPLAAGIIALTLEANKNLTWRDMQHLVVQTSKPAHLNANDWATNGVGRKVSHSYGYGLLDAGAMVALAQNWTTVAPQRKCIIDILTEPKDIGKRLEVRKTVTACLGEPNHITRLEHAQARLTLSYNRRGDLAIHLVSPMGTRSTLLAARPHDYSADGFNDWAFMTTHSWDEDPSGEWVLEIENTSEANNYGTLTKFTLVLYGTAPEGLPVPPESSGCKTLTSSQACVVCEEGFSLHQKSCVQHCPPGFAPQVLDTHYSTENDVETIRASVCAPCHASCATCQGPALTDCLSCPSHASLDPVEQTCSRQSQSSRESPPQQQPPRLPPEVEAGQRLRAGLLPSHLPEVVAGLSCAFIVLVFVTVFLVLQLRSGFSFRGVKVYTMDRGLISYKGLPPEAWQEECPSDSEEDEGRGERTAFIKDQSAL
- Method Summary: furin cleavage Z-score vs untreated control; higher = more cleavage, active = 3.5 or more, inactive = 1 or less, 8 variable residues between constant flanks;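 note: purified furin at 1:10 enzyme:substrate in 50 mM HEPES pH 7.5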
- Protocol Conditions: 7.5 min
The other results are listed elsewhere or left out. The hit rate among all sequences tested is not known here.
Parameter: furin cleavage Z-score
The response must contain the number and no unit.

Here are 6 sequences together with their reported answers.
CADVEVVTSTAGNASASA [HC2290]    1.98
CAQIVGGVYLAGNASASA [HC175]    -0.135
CAILSSLTVTAGNASASA [HC1134]    -0.227
CAYRGRCRKSAGNASASA [FS-923]    0.471
CADSLNTGWLAGNASASA [HC376]    -0.896
CAVVCCLMSYAGNASASA [HC104]    -0.57

# ---- query sequence ----
What value of furin cleavage Z-score has been reported for the following sequence? CATGALVTPCAGNASASA [HC1374]
1.46
